system name: KRAS G12S (Homo sapiens (Human), UniProt P01116+P62937, G12S)
Sequence (P01116-2 other isoform, or with tags, fused parts or gaps G12S, one chain of several): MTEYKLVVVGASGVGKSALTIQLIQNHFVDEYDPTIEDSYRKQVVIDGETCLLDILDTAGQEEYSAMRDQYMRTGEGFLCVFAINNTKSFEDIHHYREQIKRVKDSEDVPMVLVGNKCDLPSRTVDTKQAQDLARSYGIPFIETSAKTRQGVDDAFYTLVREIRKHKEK
experimental details: Ras-Raf (BRAF RBD) disruption / FRET / MOA assay, KRAS G12S
Format: biochemical
condition label: Ras-Raf disruption/FRET/MOA assay; class symbols; read-out: KRAS G12S FRET data IC50
measurement label: IC50

Provide each entry's IC50 from the list below.
1. C=CC(=O)Nc1ccc(C(=O)N(C)[C@H](C(=O)N[C@H]2Cc3cc(O)cc(c3)-c3ccc4c(c3)c(c(-c3cccnc3[C@H](C)OC)n4CC)CC(C)(C)COC(=O)[C@@H]3CCCN(N3)C2=O)C(C)C)nc1 (atropisomer, axis not shown)
2. CCn1c(-c2cccnc2[C@H](C)OC)c2c3cc(ccc31)-c1cccc(c1)C[C@H](NC(=O)[C@H](C(C)C)N(C)C(=O)C1(F)CCN(C(=O)C#CC(C)(C)N(C)C)CC1)C(=O)N1CCC[C@H](N1)C(=O)OCC(C)(C)C2 (atropisomer, axis not shown)
3. C=CC(=O)N1C[C@H]2CN(C(=O)N(C)[C@H](C(=O)N[C@H]3Cc4nc(cs4)-c4ccc5c(c4)c(c(-c4cccnc4[C@H](C)OC)n5CC)CC(C)(C)COC(=O)[C@@H]4CCCN(N4)C3=O)C(C)C)[C@H]2C1 (atropisomer, axis not shown)

1: 0.1 to 1 µM; 2: 0.1 to 1 µM; 3: 0.1 to 1 µM

---

Assign IC50 to each entry below.
system name: KRAS G12D (Homo sapiens (Human), UniProt P01116+P62937, G12D)
Sequence (P01116-2 other isoform, or with tags, fused parts or gaps G12D): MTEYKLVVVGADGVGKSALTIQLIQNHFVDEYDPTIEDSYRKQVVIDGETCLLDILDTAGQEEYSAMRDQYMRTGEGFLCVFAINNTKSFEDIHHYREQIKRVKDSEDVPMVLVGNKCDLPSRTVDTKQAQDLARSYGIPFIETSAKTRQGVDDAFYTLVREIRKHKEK
Sequence (P62937 whole entry): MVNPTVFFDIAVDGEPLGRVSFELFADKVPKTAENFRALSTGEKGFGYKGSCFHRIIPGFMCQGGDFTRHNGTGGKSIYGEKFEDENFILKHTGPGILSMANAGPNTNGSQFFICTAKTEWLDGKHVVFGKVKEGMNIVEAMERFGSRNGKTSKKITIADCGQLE
experimental details: Ras-Raf (BRAF RBD) disruption / FRET / MOA assay, KRAS G12D
Format: biochemical
condition label: Ras-Raf disruption/FRET/MOA assay; class symbols; read-out: KRAS G12D FRET data IC50

Consider the worked cases shown below.
compound: CCn1c(-c2cccnc2COC)c2c3cc(ccc31)-c1cc(O)cc(c1)C[C@H](NC(=O)[C@H](C(C)C)N(C)C(=O)[C@H]1CCN(C(=O)/C=C/CN3CCOCC3)C1)C(=O)N1CCC[C@H](N1)C(=O)OCC(C)(C)C2
measurement label: IC50
experimental value: 1 to 10 µM
//
compound: CCn1c(-c2cccnc2[C@H](C)OC)c2c3cc(ccc31)-c1csc(n1)C[C@H](NC(=O)[C@H](C(C)C)N(C)C(=O)N1CCN(C(=O)/C=C/CN(C)C)C3(CC3)C1)C(=O)N1CCC[C@H](N1)C(=O)OCC(C)(C)C2 (atropisomer, axis not shown)
measurement label: IC50
experimental value: 0.1 to 1 µM
//
compound: CCn1c(-c2ccccc2CN(C)C)c2c3cc(ccc31)-c1cc(O)cc(c1)C[C@H](NC(=O)[C@H](C(C)C)N(C)C(=O)c1ncc(NC(=O)/C=C/CN(C)C)s1)C(=O)N1CCC[C@H](N1)C(=O)OCC(C)(C)C2 (atropisomer, axis not shown)
measurement label: IC50
experimental value: 1 to 10 µM
//
compound: CCn1c(-c2cccnc2[C@H](C)OC)c2c3cc(ccc31)-c1cccc(c1)C[C@H](NC(=O)[C@H](C(C)C)N(C)C(=O)N1CCC13CN(C(=O)C#CC(C)(C)N(C)C)C3)C(=O)N1CCC[C@H](N1)C(=O)OCC(C)(C)C2
measurement label: IC50
experimental value: 1 to 10 µM
//
compound: C=CC(=O)N1C[C@H](C)[C@H](C(=O)N(C)[C@H](C(=O)N[C@H]2Cc3cc(O)cc(c3)-c3ccc4c(c3)c(c(-c3ccccc3CN(C)C)n4CC)CC(C)(C)COC(=O)[C@@H]3CCCN(N3)C2=O)C(C)C)C1
measurement label: IC50
experimental value: 1 to 10 µM

List the reported IC50 of each compound below.
1. C=CS(=O)(=O)N1CC[C@H](C(=O)N(C)[C@H](C(=O)N[C@H]2Cc3nc(cs3)-c3ccc4c(c3)c(c(-c3cccnc3[C@H](C)OC)n4CC)CC(C)(C)COC(=O)[C@@H]3CCCN(N3)C2=O)C(C)C)C1 (atropisomer, axis not shown)
2. C=CC(=O)N1CC[C@H](C(=O)N2CCCCC[C@H]2C(=O)N[C@H]2Cc3nc(cs3)-c3ccc4c(c3)c(c(-c3cccnc3[C@H](C)OC)n4CC)CC(C)(C)COC(=O)[C@@H]3CCCN(N3)C2=O)C1 (atropisomer, axis not shown)

> 10 µM
> 10 µM

Fill in the blank: the reported IC50 of CCn1c(-c2cccnc2[C@H](C)OC)c2c3cc(ccc31)-c1cc(CF)cc(c1)C[C@H](NC(=O)[C@@H](COC1CN(C(=O)C#CC(C)(C)N(C)C)C1)C(C)C)C(=O)N1CCC[C@H](N1)C(=O)OCC(C)(C)C2 (atropisomer, axis not shown) is ____.
> 10 µM
